- target: T1, c-Met ECD-Fc (cynomologus) (cynomologus, UniProt A0A2K5UM36 25-932)
- T1 construct: also called cynomologus c-Met ECD-Fc
- T1 sequence (A0A2K5UM36 entry or part of it limits assumed): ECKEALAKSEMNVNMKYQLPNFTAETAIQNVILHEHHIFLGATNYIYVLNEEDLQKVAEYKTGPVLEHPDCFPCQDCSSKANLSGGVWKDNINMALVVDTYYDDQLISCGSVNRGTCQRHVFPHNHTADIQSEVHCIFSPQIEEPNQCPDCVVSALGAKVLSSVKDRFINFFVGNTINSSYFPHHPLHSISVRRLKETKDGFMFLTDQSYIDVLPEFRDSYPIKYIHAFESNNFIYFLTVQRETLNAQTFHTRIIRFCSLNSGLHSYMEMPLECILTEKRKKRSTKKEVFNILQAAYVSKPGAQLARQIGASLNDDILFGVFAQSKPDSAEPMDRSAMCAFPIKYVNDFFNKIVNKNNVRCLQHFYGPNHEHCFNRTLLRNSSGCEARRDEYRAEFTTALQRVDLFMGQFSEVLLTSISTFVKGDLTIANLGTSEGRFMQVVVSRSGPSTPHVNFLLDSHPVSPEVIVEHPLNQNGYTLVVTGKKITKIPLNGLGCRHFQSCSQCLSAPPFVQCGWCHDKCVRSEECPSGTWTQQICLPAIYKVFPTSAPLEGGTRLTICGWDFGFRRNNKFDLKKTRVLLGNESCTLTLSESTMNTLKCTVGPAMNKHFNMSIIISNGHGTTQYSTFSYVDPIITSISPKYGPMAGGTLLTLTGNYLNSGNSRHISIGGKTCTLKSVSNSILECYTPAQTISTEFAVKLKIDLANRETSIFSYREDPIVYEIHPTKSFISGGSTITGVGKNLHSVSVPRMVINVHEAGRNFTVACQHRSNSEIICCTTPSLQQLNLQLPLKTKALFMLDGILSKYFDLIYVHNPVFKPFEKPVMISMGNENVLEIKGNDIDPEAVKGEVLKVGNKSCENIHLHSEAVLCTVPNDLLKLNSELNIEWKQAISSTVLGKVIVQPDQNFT
- run-description: SPR (BIACORE 3000), cynomologus c-Met ECD-Fc immobilized, antibody injected
metric: koff (s⁻¹)
Answers are plain numbers, in s⁻¹.

Reported koff of anti-c-Met monoclonal antibody 9.1.2 (antibody, V domains shown, Human IgG2 kappa; also called hybridoma 9.1.2 (LN 15884); PTA-5027) VH: QVQLQESGPGLVKPSQTLSLTCTVSGGSISSGGYYWSWIRQHPGKGLEWIGYIYYSGSTYYNPSLKSRVTISVDTSKNQFSLKLSSVTAADTAVYYCARDGPLGYCSSTSCPVTGEYYYYGMDVWGQGTTVTVSS VL: EIVLTQSPGTLSLSPGERATLSCRASQSVSNNYLAWYQQKPGQAPRLLIFGASSRATGIPDRFSGSGSGTDFTLTISRLEPEDFAVYYCQQYDISPMYSFGQGTKLEMKR : 9.8e-05
